Where do the numbers come from? From ChEMBL document CHEMBL1138462.

# Protocol: Oral bioavailability in rat up to 50 mg/kg
# Assay type: ADME, organism-based
# Experimental context: in vivo
Endpoint label: bioavailability (%)
Kindly answer with a numeric value in %, unit omitted.

Kindly note the recorded bioavailability for CC(F)(F)CN1CCOc2c(nn(-c3ccccc3Cl)c2-c2ccc(Cl)cc2)C1=O , which is 51

----------
# Protocol: Oral bioavailability in rat at 500 mg/kg
# Format: ADME, organism-based
# Experimental context: in vivo
Endpoint label: bioavailability (%)
Kindly answer with a numeric value in %, unit omitted.

Kindly note the recorded bioavailability for CC(F)(F)CN1CCc2c(nn(-c3ccccc3Cl)c2-c2ccc(Cl)cc2)C1=O , which is 50
